Data credit: patent US20250136586A1

Biological target: CDK4/Cyclin D1 (Homo sapiens (Human), UniProt P11802)
Sequence (P11802 whole entry): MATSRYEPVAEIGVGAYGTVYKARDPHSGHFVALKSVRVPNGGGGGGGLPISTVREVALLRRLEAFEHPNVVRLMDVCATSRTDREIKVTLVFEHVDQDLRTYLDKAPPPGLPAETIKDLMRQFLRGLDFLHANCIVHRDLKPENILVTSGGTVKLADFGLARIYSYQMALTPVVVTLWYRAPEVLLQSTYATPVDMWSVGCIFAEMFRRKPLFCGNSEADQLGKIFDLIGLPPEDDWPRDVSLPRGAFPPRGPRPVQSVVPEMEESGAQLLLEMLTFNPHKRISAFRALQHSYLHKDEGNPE
Sequence (P24385 whole entry partner): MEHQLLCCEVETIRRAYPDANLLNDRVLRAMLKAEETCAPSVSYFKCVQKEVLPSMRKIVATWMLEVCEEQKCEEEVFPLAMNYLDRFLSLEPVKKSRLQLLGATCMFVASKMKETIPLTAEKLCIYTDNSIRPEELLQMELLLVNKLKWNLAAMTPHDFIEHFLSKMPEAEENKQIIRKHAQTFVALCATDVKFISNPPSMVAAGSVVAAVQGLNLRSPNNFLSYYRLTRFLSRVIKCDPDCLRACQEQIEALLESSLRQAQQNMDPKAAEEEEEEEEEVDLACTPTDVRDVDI
Assay: TR-FRET kinase inhibition assay, CDK4/Cyclin D1
Conditions: 1 mM ATP, 0.15 μM Rb (Ser780)-biotin substrate, read-out: CDK4D1 IC50
QUANTITY_MEASURED: IC50 (nM)
Expressed in nM, but write only the number.

Examples with answers:
CC(C)n1c(CN[C@H]2CCCOC2)cc(=O)c2ccc(-c3nc(N[C@@H]4CCOC[C@H]4O)ncc3F)cc21 [Example 60]
22
CC(C)n1c(CNc2cccc(Cl)c2)cc(=O)c2ccc(-c3nc(N[C@@H]4CCOC[C@H]4O)ncc3F)cc21 [Example 95]
13
CC(C)n1c(CN2[C@H](C)COC[C@@H]2C)cc(=O)c2ccc(-c3nc(N[C@@H]4CCOC[C@H]4O)ncc3F)cc21 [Example 107]
7.4
CC(C)n1c(CN2CC[C@H](F)[C@@H](O)C2)cc(=O)c2ccc(-c3nc(N[C@@H]4CCOC[C@H]4O)ncc3F)cc21 [Example 85]
19
Cc1c(CN[C@H]2CCOC2)n(C(C)C)c2cc(-c3nc(N[C@@H]4CCOC[C@H]4O)ncc3F)ccc2c1=O [Example 113]
17

So for Cc1c(CN(C)C)n(C(C)C)c2cc(-c3nc(N[C@@H]4CCOC[C@H]4O)ncc3F)ccc2c1=O [Example 108] , the logged IC50 turned out to be 14

So for CC(C)n1c(CN2CC[C@@H](F)[C@H](O)C2)cc(=O)c2ccc(-c3nc(N[C@@H]4CCOC[C@H]4O)ncc3F)cc21 [Example 84] , the logged IC50 turned out to be 6.8

---

Target: CDK4/Cyclin D1 (Homo sapiens (Human), UniProt P11802)
Test: TR-FRET kinase inhibition assay, CDK4/Cyclin D1
Conditions: 1 mM ATP, 0.15 μM Rb (Ser780)-biotin substrate, read-out: CDK4D1 IC50
QUANTITY_MEASURED: log10(IC50) (log10 of the value in µM)
Hi team, quick reminder: these entries are log10 of IC50 (µM).

Examples with answers:
Cc1c(CN)n(C(C)C)c2cc(-c3nc(N[C@@H]4CCOC[C@H]4O)ncc3F)ccc2c1=O [Example 120]
-2.23
Cc1c(CN2CCOCC2)n(C(C)C)c2cc(-c3nc(N[C@@H]4CCOC[C@H]4O)ncc3F)ccc2c1=O [Example 58]
-2.47
COc1ccc(NCc2cc(=O)c3ccc(-c4nc(N[C@@H]5CCOC[C@H]5O)ncc4F)cc3n2C(C)C)cc1 [Example 101]
-1.59
Cc1c(CN2CCC(O)CC2)n(C(C)C)c2cc(-c3nc(N[C@@H]4CCOC[C@H]4O)ncc3F)ccc2c1=O [Example 115]
-2.18
CC(C)n1c(CN2CCC[C@@]3(CCN(C)C3=O)C2)cc(=O)c2ccc(-c3nc(N[C@@H]4CCOC[C@H]4O)ncc3F)cc21 [Example 51]
-1.27
CC(C)n1c(CN2CCC[C@H](F)C2)cc(=O)c2ccc(-c3nc(N[C@@H]4CCOC[C@H]4O)ncc3F)cc21 [Example 69]
-1.68

So for CC(C)n1ccc(=O)c2c(Cl)cc(-c3nc(N[C@@H]4CCOC[C@H]4O)ncc3Cl)cc21 [Example 1] , the logged log10(IC50) turned out to be -1.00

---

Target: CDK4/Cyclin D1 (Homo sapiens (Human))
Assay: TR-FRET kinase inhibition assay, CDK4/Cyclin D1
Conditions: 1 mM ATP, 0.15 μM Rb (Ser780)-biotin substrate, read-out: CDK4D1 IC50
In this section, each of the compounds is paired with its reported pIC50.
When answering, recall that pIC50 equals minus log10 of the concentration in mol/L, and write that number alone.

CC(C)n1c(CN2CCOCC2)cc(=O)c2ccc(-c3nc(N[C@@H]4CCOC[C@H]4O)ncc3F)cc21 [Example 25]
8.09
CC(=O)c1cn(C(C)C)c2cc(-c3nc(N[C@@H]4CCOC[C@H]4O)ncc3F)ccc2c1=O [Example 4]
6.60
CC(C)n1c(CN2CC[C@@H](O)C2)cc(=O)c2ccc(-c3nc(N[C@@H]4CCOC[C@H]4O)ncc3F)cc21 [Example 87]
7.66

So for Cc1c(Cl)c(=O)c2ccc(-c3nc(N[C@@H]4CCOC[C@H]4O)ncc3F)cc2n1C(C)C [Example 15] , the logged pIC50 turned out to be 7.82

So for Cc1c(CN2[C@@H](C)COC[C@@H]2C)n(C(C)C)c2cc(-c3nc(N[C@@H]4CCOC[C@H]4O)ncc3F)ccc2c1=O [Example 118] , the logged pIC50 turned out to be 8.96

So for CC(C)n1c(CN[C@H]2C[C@H](F)C2)cc(=O)c2ccc(-c3nc(N[C@@H]4CCOC[C@H]4O)ncc3F)cc21 [Example 63] , the logged pIC50 turned out to be 7.66

So for CNC(=O)c1cc(=O)c2ccc(-c3nc(N[C@@H]4CCOC[C@H]4O)ncc3Cl)cc2n1C(C)C [Example 14] , the logged pIC50 turned out to be 7.38
